# polymerase ribozyme fitness (log ratio) annotations
B1: TPR t1 (parent)
chain: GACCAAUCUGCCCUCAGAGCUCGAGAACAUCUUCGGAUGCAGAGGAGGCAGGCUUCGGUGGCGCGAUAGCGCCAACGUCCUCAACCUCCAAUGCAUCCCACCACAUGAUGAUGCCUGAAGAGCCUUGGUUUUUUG

# Variants of: B1
# ASSAY: polymerase ribozyme fitness, log enrichment relative to wild type (log ratio); higher = more active; in vitro selection for triplet polymerase activity
// no unit, no text: just the number

Please review the entries below; each comes with its answer.
U38C C56U A84G : -1.53
C56A C114U C115U U131C : -5.83
G61U G127C : -0.698

Q. Look up and state reported polymerase ribozyme fitness (log ratio) for G47U G110A
A. -2.29

Q. Look up and state reported polymerase ribozyme fitness (log ratio) for A46U C53U G69C U87C
A. -2.13

Q. Look up and state reported polymerase ribozyme fitness (log ratio) for G93A C104A G113C
A. -4.27

Q. Look up and state reported polymerase ribozyme fitness (log ratio) for C53A U116G
A. -1.78

Q. Look up and state reported polymerase ribozyme fitness (log ratio) for A2G C4U G35A G77A C98U C101A
A. -6.32

Reference for the values: the RNAGym collection of RNA variant scans (doi:10.1073/pnas.2313332121)
